system: URAT1 (SLC22A12) (Homo sapiens, UniProt Q96S37)
Sequence (Q96S37 whole entry): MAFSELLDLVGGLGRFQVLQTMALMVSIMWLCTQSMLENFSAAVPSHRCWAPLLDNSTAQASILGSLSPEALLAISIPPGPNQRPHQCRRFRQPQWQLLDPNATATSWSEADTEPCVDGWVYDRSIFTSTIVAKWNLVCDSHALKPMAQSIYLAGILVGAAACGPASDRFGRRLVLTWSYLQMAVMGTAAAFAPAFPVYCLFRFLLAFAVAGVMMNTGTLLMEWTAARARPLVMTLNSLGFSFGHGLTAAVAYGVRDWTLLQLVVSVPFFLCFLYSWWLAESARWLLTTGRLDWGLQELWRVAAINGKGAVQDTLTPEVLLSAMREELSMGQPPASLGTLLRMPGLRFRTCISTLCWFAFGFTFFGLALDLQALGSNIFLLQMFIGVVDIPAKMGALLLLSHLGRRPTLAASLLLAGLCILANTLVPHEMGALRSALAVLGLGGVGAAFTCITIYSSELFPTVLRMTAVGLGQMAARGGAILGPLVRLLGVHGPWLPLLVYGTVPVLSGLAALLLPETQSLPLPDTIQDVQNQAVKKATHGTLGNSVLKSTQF
run description: Inhibition of human URAT1-mediated urate uptake in HEK293 cells at 2 uM
Assay type: cell-based
condition label: HEK293 cells expressing human URAT1, probe urate
measured attribute: inhibition at 2 µM (%)
Report as a plain number; the unit % is understood.

- smiles notation: "CCCN(CCC)S(=O)(=O)c1ccc(C(=O)O)cc1"
  inhibition at 2 µM (%): 30

QUERY: Fill in inhibition at 2 µM for record `CCc1oc2ccccc2c1C(=O)c1cc(Br)c(O)c(Br)c1`
RESULT: 70
